tested_target: mutant MGL (Homo sapiens, UniProt Q99685, L169S/L176S)
Sequence (Q99685 1-303 L169S/L176S): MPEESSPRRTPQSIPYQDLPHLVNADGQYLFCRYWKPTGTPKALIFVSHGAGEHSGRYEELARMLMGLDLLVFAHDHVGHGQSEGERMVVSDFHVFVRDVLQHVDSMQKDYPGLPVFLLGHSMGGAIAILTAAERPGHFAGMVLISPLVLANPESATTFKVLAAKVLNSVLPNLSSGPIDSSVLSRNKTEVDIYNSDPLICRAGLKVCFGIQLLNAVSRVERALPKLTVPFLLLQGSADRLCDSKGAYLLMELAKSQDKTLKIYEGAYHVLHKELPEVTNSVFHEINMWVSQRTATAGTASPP
experiment_notes: MGL ThermoFluor assay - mutant
Type: binding
assay_context: ThermoFluor concentration-response, read-out: MGL mutant ThermoFluor Kd
pKd: −log10 of the molar value.
quantity: pKd

Consider the following illustrative entries.
Cc1nc(COc2ccc(Cl)cc2)sc1C(=O)N1CC(N2CCN(C(=O)c3nccs3)CC2)C1 = 7.46
O=C(c1ccc2c(ccn2-c2ccc(F)c(F)c2)c1)N1CC(N2CCN(C(=O)c3nccs3)CC2)C1 = 9.00
Cc1nc(COc2ccc(Cl)cc2)sc1C(=O)N1CC(N2CCN(C(=O)c3cscn3)CC2)C1 = 6.48
O=C(c1ccc2nc(C(F)(F)F)cc(Cl)c2c1)N1CC(N2CCN(C(=O)c3nccs3)CC2)C1 = 7.00

[A] O=C(c1cscn1)N1CCN(C2CN(C(=O)c3cccc(-c4ccccc4)c3F)C2)CC1
[B] Cc1c(C(=O)N2CCN(C3CN(C(=O)c4ccc[nH]4)C3)CC2)sc2cc(C(F)(F)F)ccc12
[C] O=C(c1ccc(N2CCOCC2)cc1)N1CC(N2CCN(C(=O)c3nccs3)CC2)C1
Task item: Your job: order these 3 records by pKd, ascending. Put the labels in the requested order and write them down.
Reply: A, C, B
(A: 5.60, C: 6.60, B: 7.80)
